B1: CROP (parent)
chain: VFGRGDNISDVSKFLEDDKWMEE

Variants of: B1
Assay: protein stability index of a GFP-peptide fusion (GPS, HEK-293T) (PSI 1-6); higher = more stable;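 note: lentivirally expressed fusions sorted by FACS into six bins by GFP to DsRed ratio, PSI derived from sequencing read proportions per bin multiplied by bin number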
Details: c terminus: native
// 0 strictly below 3 in protein stability index; 1 otherwise

Some solved entries appear below for comparison.
mutation-key | group
N7E | 0
D10G | 0
R4D | 0

Request: Reported protein stability index at or above 3? `E23S`
Response: 1

Request: Assess whether reported protein stability index for `F14K` sits at 3 or higher.
Response: 1
